Reported inhibition by item:
# tested system: NAD-dependent histone deacetylase SIR2 (Saccharomyces cerevisiae S288c) (UniProt P06700)
# Sequence (P06700 whole entry): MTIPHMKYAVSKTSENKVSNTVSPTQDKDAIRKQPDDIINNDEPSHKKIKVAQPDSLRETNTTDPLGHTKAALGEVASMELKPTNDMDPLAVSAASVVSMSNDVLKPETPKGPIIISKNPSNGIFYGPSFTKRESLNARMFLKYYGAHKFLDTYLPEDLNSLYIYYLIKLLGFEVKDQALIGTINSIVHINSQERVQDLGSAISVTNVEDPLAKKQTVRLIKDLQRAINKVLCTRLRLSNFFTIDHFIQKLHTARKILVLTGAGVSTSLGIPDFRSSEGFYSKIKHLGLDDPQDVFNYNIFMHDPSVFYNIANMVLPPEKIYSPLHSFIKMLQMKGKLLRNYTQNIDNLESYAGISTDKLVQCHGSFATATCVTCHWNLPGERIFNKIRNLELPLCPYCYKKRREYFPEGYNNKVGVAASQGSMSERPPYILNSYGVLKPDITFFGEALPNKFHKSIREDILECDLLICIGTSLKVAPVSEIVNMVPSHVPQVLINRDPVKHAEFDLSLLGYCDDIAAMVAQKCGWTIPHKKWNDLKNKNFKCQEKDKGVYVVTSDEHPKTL
# assay protocol: Inhibitory activity against recombinant yeast Sir2 at 100 uM

compound: N#Cc1ccccc1/N=C/c1c(O)ccc2ccccc12
observation type: inhibition
result: 15%

compound: C[C@H](NC(=O)c1ccccc1/N=C/c1c(O)ccc2ccccc12)c1ccccc1
observation type: inhibition
result: 57%

Consider now this further compound.
INPUT: Give inhibition only, for CC(NC(=O)c1ccccc1/N=C/c1cccc2ccccc12)c1ccccc1 (centres undefined) , using NAD-dependent histone deacetylase SIR2 (Saccharomyces cerevisiae S288c) (UniProt P06700) data.
OUTPUT: 10%

###

# tested system: NAD-dependent histone deacetylase SIR2 (Saccharomyces cerevisiae S288c) (UniProt P06700)
# assay protocol: Inhibitory activity against recombinant yeast Sir2 at 100 uM
// label = true (1) if inhibition is not less than 60%, otherwise false (0)

compound: CC(NC(=O)c1cccc(/N=C/c2c(O)ccc3ccccc23)c1)c1ccccc1 (stereo unspecified)
tested system: NAD-dependent histone deacetylase SIR2 (Saccharomyces cerevisiae S288c) (UniProt P06700)
assigned label: false (0)

compound: O=C(O)c1ccccc1/N=C/c1c(O)ccc2ccccc12
tested system: NAD-dependent histone deacetylase SIR2 (Saccharomyces cerevisiae S288c) (UniProt P06700)
assigned label: false (0)

compound: C[C@@H](NC(=O)c1ccccc1/N=C/c1c(O)ccc2ccccc12)c1ccccc1
tested system: NAD-dependent histone deacetylase SIR2 (Saccharomyces cerevisiae S288c) (UniProt P06700)
assigned label: false (0)

compound: CC(NC(=O)c1ccccc1/N=C/c1c(O)ccc2ccccc12)c1ccccc1 (stereo unspecified)
tested system: NAD-dependent histone deacetylase SIR2 (Saccharomyces cerevisiae S288c) (UniProt P06700)
assigned label: true (1)

INPUT: Is it the case that CCOC(=O)c1ccccc1/N=C/c1c(O)ccc2ccccc12 has inhibition reaching or exceeding 60%?
OUTPUT: false (0)

###

# tested system: NAD-dependent protein deacetylase sirtuin-2 (Homo sapiens)
# Sequence (whole entry): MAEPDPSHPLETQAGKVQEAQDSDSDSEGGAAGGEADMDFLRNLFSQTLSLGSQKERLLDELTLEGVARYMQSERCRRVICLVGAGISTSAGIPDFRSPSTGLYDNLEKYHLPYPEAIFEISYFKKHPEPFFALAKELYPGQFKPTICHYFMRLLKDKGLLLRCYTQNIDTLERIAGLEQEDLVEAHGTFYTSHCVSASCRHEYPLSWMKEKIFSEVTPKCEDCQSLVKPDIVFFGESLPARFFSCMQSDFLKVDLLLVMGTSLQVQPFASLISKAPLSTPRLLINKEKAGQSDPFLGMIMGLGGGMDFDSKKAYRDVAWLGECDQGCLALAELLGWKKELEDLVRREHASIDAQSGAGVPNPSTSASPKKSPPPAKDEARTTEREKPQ
# assay protocol: Inhibitory activity against human SIRT2 at 100 uM
observation type: inhibition (%)
Field format: number, assumed %, no unit text.

Past entries and their recorded results:
molecule: CC(NC(=O)c1ccccc1/N=C/c1c(O)ccc2ccccc12)c1ccccc1 (stereo not given)
result number: 71
//
molecule: C[C@@H](NC(=O)c1ccccc1/N=C/c1c(O)ccc2ccccc12)c1ccccc1
result number: 72.2
//
molecule: C[C@H](NC(=O)c1ccccc1/N=C/c1c(O)ccc2ccccc12)c1ccccc1
result number: 73.5
//
molecule: CC(NC(=O)c1ccc(/N=C/c2c(O)ccc3ccccc23)cc1)c1ccccc1 (stereo not given)
result number: 80.2

INPUT: Give a short answer stating reported inhibition for CC(NC(=O)c1cccc(/N=C/c2c(O)ccc3ccccc23)c1)c1ccccc1 (stereo not given) .
OUTPUT: 79.2
